Here, compounds appear alongside IC50 reported for UniProt P03952 in the literature.

Solved entries (count: 3):
Cc1nc(N2CC3(CC3)C2)ncc1Cn1cc(C(=O)NCc2c(-n3cnnn3)ccc(Cl)c2F)c(C)n1 ... 0.7 nM
O=C(c1ccoc1)n1nc(-c2ccc(Br)c(=O)[nH]2)cc1NCc1ccc(Cl)s1 ... 10000 to 100000 nM
Cc1nc(N2CC(C(F)(F)F)C2)ccc1Cn1cc(C(=O)N[C@@H]2CCc3c2n[nH]c3C)cn1 ... 17 nM

[Q] Need IC50 of Cc1c[nH]c(=O)c(-c2cc(NCc3ccc(Cl)s3)n(C(=O)c3ccoc3)n2)c1 , thanks.
[A] 100 to 1000 nM

[Q] Item: Cc1nc(N2C[C@@H]3[C@@H](O)[C@@H]3C2)ccc1Cn1cc(C(=O)N[C@@H]2CCc3c2n[nH]c3C)cn1
[A] 17 nM

[Q] Item: COCc1nn(Cc2cnc(N3CC4CC4C3)nc2C)cc1C(=O)NCc1cc(Cl)ccc1-n1cnnn1 (centres unmarked)
[A] 5 nM

[Q] Item: Cc1nc(N2CC(n3cccn3)C2)ccc1Cn1cc(C(=O)N[C@@H]2CCc3c2n[nH]c3C)cn1
[A] 20 nM

[Q] Item: Cc1nc(N2CC3COCC(C3)C2)ccc1Cn1cc(C(=O)NCc2cc(Cl)ccc2-n2cnnn2)cn1
[A] 7 nM

###

Here, molecules appear alongside IC50 reported for UniProt:P03952 in the literature.
Express it in nM; write the number only.

Solved entries (count: 5):
Cc1nc(N2CC3CC3C2)ccc1Cn1cc(C(=O)NCc2cc(Cl)ccc2-n2cnnn2)cn1 (stereo not drawn) ... 0.5
Cc1nc(N2CC3CC3C2)ncc1Cn1cc(C(=O)NCc2c(-n3cnnn3)ccc(Cl)c2F)c(C)n1 (stereo not drawn) ... 0.8
Cc1nc(N2CC3CCC3C2)ccc1Cn1cc(C(=O)N[C@@H]2CCc3c2n[nH]c3C)cn1 (stereo partly drawn) ... 4
Cc1nc(N2C[C@@H]3[C@@H](O)[C@@H]3C2)ccc1Cn1cc(C(=O)NCc2cc(Cl)ccc2-n2cnnn2)cn1 ... 6
Cc1nc(N2CCC3(CCOC3)C2)ccc1Cn1cc(C(=O)NCc2cc(Cl)ccc2-n2cnnn2)cn1 (stereo not drawn) ... 8

[Q] Need IC50 of COCc1nn(Cc2cnc(N3CC4C(C3)C4(F)F)nc2C)cc1C(=O)NCc1c(-n2cnnn2)ccc(Cl)c1F (stereo not drawn) , thanks.
[A] 1

[Q] Item: Cc1nc(N2CC3C(C2)C3(F)F)ccc1Cn1cc(C(=O)NCc2cc(Cl)ccc2-n2cnnn2)c(C)n1 (stereo not drawn)
[A] 1

[Q] Item: Cc1[nH]nc2c1CC[C@H]2NC(=O)c1cnn(Cc2cnc(N3CC4CC4C3)cc2C(F)(F)F)c1 (stereo partly drawn)
[A] 2.6

[Q] Item: Cc1nc(N2CC3CC3C2)ccc1Cn1cc(C(=O)NCc2c(-n3cnnn3)ccc(Cl)c2F)c(C(F)F)n1 (stereo not drawn)
[A] 0.5

[Q] Item: Cc1nc(N2CC3(CC3)C2)ccc1Cn1cc(C(=O)NCc2cc(Cl)ccc2-n2cnnn2)cn1
[A] 0.5

[Q] Item: COCc1nn(Cc2ccc(N3CC4(CC4)C3)nc2C)cc1C(=O)N[C@@H]1CCc2c(C)n[nH]c21
[A] 2
